The reader will find reported Sweetness Potency relative to MNEI values listed item by item below.
assay: Sweetness potency relative to MNEI (Table 10); format: in vivo; settings: MNEI = 1.0

Molecule | Sweetness Potency relative to MNEI
DM11: modified MNEI protein, SEQ ID NO: 19, I8T/N14K/C41T/R84L (protein, DM11) GEWEIIDTGPFTQKLGKFAVDEENKIGQYGRLTFNKVIRPTMKKTIYENEGFREIKGYEYQLYVYASDKLFRADISEDYKTRGLKLLRFNGPVPPP | 0.2
DM10: modified MNEI protein, SEQ ID NO: 18, Q28K/R31T/N35T/S67N (protein, DM10) GEWEIIDIGPFTQNLGKFAVDEENKIGKYGTLTFTKVIRPCMKKTIYENEGFREIKGYEYQLYVYANDKLFRADISEDYKTRGRKLLRFNGPVPPP | 0.5
